system tested: T1, 4H536-AA
T1 chain: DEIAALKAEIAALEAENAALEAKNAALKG
procedure details: two-hybrid library CCmax;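 also: natural log of median RNA to DNA barcode read ratio; higher means stronger binding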
assay conditions: mean of both orientations
measured quantity: interaction score
// return just the number, without any unit appended

Query: Annotate the binder DKIAALKAKNAALKAEIAALEAKNAALKG [4H3016-AA] with its measured interaction score.
Result: -0.944

Query: Provide only the value of recorded interaction score for DKIAALEAENAALKAEIAALKAKIAALEG [4H2253-AA]
Result: -1.37

Query: Retrieve interaction score measured for DKIAALEAKNAALEAEIAALEAKIAALKG [4H2438-AA] and print it.
Result: -1.47

Query: Give interaction score for the following binder: DKNAALKAEIAALKAKNAALEAEIAALEG [4H3697-AA]
Result: 0.0406

Query: Supply measured interaction score of DENAALKAKIAALEAKNAALEAEIAALKG [4H1842-AA] in your reply.
Result: -1.7

Query: Fill in interaction score for record DEIAALEAENAALEAKIAALKAKIAALKG [4H174-AA]
Result: -0.546

Query: Output interaction score of DENAALKAEIAALEAKNAALKAKIAALEG [4H1597-AA]
Result: -0.234

Query: Look up and report measured interaction score for this entry: DKNAALEAKIAALKAEIAALEAENAALEG [4H3395-AA]
Result: -1.14

Query: # return recorded interaction score for entry DEIAALEAENAALEAKIAALKAENAALEG [4H171-AA]
Result: -1.32

Query: For DKNAALEAEIAALEAKNAALKAEIAALKG [4H3130-AA] , write its interaction score.
Result: -0.902

Query: Identify measured interaction score corresponding to DENAALEAEIAALKAKNAALEAKIAALKG [4H1142-AA]
Result: -1.1

Query: Identify interaction score associated with the binder DENAALKAEIAALEAKIAALKAENAALEG [4H1579-AA]
Result: 0.42

Query: For DEIAALEAKIAALEAKNAALEAKIAALKG [4H310-AA] , write its interaction score.
Result: -0.922

Query: Give the value of interaction score reported for the following: DKIAALKAKNAALKAEIAALEAEIAALEG [4H3009-AA]
Result: -1.35
